Target: HLA-B*15:03
Test: IEDB peptide-MHC binding, purified MHC/competitive/radioactivity; filed as Kd, often an IC50 or EC50 that approximates it; bounds were set here for any values at or beyond the usual limits of such assays
Conditions: source organism: Vaccinia virus Copenhagen
Kd reference
Provide the reading as a plain figure in nM.

Some solved cases for reference:
>>> df
   sequencestring  reading
0       ELAYYNSCM     4140
1       FQQPQFQYL     22.6

// next item, Kd requested
Look up Kd for this sequence: RSSRGVQFL
123

* * *

Biological target: HLA-B*08:02
Assay: IEDB peptide-MHC binding, purified MHC/direct/fluorescence; filed as Kd, often an IC50 or EC50 that approximates it; bounds were set here for any values at or beyond the usual limits of such assays
Settings: source organism: Bacillus cereus NVH0597-99
pKd: −log10 of the molar value.
quantity: pKd

Look up pKd for this sequence: REFEAQNVP
≤ 4.70

* * *

Molecular target: HLA-A*24:03
Test: IEDB peptide-MHC binding, purified MHC/competitive/fluorescence; filed as Kd, often an IC50 or EC50 that approximates it; bounds were set here for any values at or beyond the usual limits of such assays
Settings: source organism: Bacillus cereus G9241
quantity: Kd

Look up Kd for this sequence: YYKKTFSAL
≤ 0.1 nM

* * *

Target: HLA-A*69:01
Experiment: IEDB peptide-MHC binding, purified MHC/direct/fluorescence; filed as Kd, often an IC50 or EC50 that approximates it; bounds were set here for any values at or beyond the usual limits of such assays
Settings: source organism: Yellow fever virus
quantity: Kd

Look up Kd for this sequence: FHKRDMRLL
≥ 20 µM

* * *

Kd reference
Target: HLA-A*68:01
Assay: IEDB peptide-MHC binding, purified MHC/competitive/radioactivity; filed as Kd, often an IC50 or EC50 that approximates it; bounds were set here for any values at or beyond the usual limits of such assays
Conditions: source organism: Dengue virus 1 Brazil/97-11/1997
Provide the reading as a plain figure in µM.

>>> print(df.to_string())
   sequencestring  quantity  unitspec  reading
0      VSIMIEEVMR        Kd        µM    0.202

// next item, Kd requested
Look up Kd for this sequence: SSMLNIMNR
0.00735

* * *

Biological target: HLA-B*39:01
Test: IEDB peptide-MHC binding, purified MHC/direct/fluorescence; filed as Kd, often an IC50 or EC50 that approximates it; bounds were set here for any values at or beyond the usual limits of such assays
Conditions: source organism: Squirrelpox virus
pKd: −log10 of the molar value.
quantity: pKd

Look up pKd for this sequence: MACHRVLTY
≤ 4.70

* * *

Biological target: HLA-A*26:01
Assay: IEDB peptide-MHC binding, purified MHC/competitive/fluorescence; filed as Kd, often an IC50 or EC50 that approximates it; bounds were set here for any values at or beyond the usual limits of such assays
Conditions: source organism: Orthohantavirus sinnombreense
quantity: Kd

Look up Kd for this sequence: YKSRCYVGL
≥ 20 µM

* * *

Target: HLA-A*31:01
Test: IEDB peptide-MHC binding, purified MHC/competitive/fluorescence; filed as Kd, often an IC50 or EC50 that approximates it; bounds were set here for any values at or beyond the usual limits of such assays
Conditions: source organism: Mycobacterium tuberculosis variant bovis BCG str. Pasteur 1173P2
quantity: Kd

Look up Kd for this sequence: AVFEIFFRK
61.7 nM

The measured values listed here are drawn from the Immune Epitope Database (IEDB).
